Origin of the recorded values: PubChem BioAssay AID2124

System: cells, GFP-channel autofluorescence, high-content imaging
Experiment: cell-permeable autofluorescent compounds in GFP channel, dose response, artefact control, imaging, high-content imaging (AID 2124)
Inconclusive results are not listed. The source made the active and inactive calls. The rule behind the calls is not given here; tested in MIN6 cells.
Form entry, call: pick from active, inactive

stdin: Tell me the assay call for `N#C/C(=C/c1ccc(N2CCOCC2)o1)C(=O)Nc1ccccc1` please.
stdout: active

stdin: Tell me the assay call for `O=C(O)c1cc(-c2ccc(/C=C3/SC(=S)N(Cc4ccccc4)C3=O)o2)ccc1Cl` please.
stdout: active

stdin: Tell me the assay call for `Cc1ccc(S(=O)(=O)CCSc2nc(C)cc(C(F)(F)F)c2C#N)cc1` please.
stdout: active

stdin: Tell me the assay call for `CCN(CC)c1ccc(/C=C(\C#N)C(=O)c2ccc(Br)cc2)cc1` please.
stdout: active

stdin: Tell me the assay call for `CN1C(=O)C(=Cc2ccc(N3CCCCC3)o2)C(=O)N(C)C1=S` please.
stdout: inactive

stdin: Tell me the assay call for `N#C/C(=C/c1ccc(N2CCCCC2)o1)c1cccc(F)c1` please.
stdout: active

###

Test: cell-permeable autofluorescent compounds in GFP channel, dose response, artefact control, imaging, high-content imaging (AID 2124);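 for cell count: cells exposed to compound for 48 hours before fixing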
Conditions: cells, GFP-channel autofluorescence, high-content imaging; cell count; at 10 µM
Results filed as inconclusive are left out.
Can you tell me cell count for the items I'm about to list?

stdin: Given `N=c1oc2c3c4c(cc2cc1C(=O)Nc1ccccc1)CCCN4CCC3` , respond with its cell count.
stdout: 3140 cells

stdin: Given `CC1CCN(C(=O)CNS(=O)(=O)c2ccc(Br)s2)CC1` , respond with its cell count.
stdout: 3290 cells

stdin: Given `O=C(c1ccc2c(c1)OCO2)N1CCCC1` , respond with its cell count.
stdout: 2960 cells

stdin: Given CCC(C)(C(=O)NC1CCCC1)N(C(=O)CNC(C)=O)c1ccccc1 (configuration not stated) , respond with its cell count.
stdout: 2960 cells

stdin: Given `COC(=O)c1cc2c(-c3ccccc3)cc3ccccn3c-2c1C(=O)OC` , respond with its cell count.
stdout: 2880 cells

stdin: Given CC1CCc2c(sc3nn[nH]c(=O)c23)C1 (configuration not stated) , respond with its cell count.
stdout: 2750 cells

stdin: Given `CCOC(=O)N1CCN(S(=O)(=O)c2ccc3c(c2)oc(=O)n3C)CC1` , respond with its cell count.
stdout: 2780 cells

stdin: Given `O=C1/C(=C/c2ccc(N3CCCC3)cc2)NC(=S)N1C1CC1` , respond with its cell count.
stdout: 2770 cells

stdin: Given `CCCCn1nc(-c2ccccc2)c2nc3ccccc3nc21` , respond with its cell count.
stdout: 3250 cells

stdin: Given CCCN1CC=C2C(C#N)=C(N)C(C#N)(C#N)C(c3cccc(OC)c3OC)C2C1 (configuration not stated) , respond with its cell count.
stdout: 3050 cells

stdin: Given CCCCN(C)C1=CC2=CC(=C(C#N)C#N)CCC2CC1 (configuration not stated) , respond with its cell count.
stdout: 3120 cells

stdin: Given `CCCCc1ccc2[nH]cc(CCN)c2c1` , respond with its cell count.
stdout: 2320 cells

###

System: cells, GFP-channel autofluorescence, high-content imaging
Assay: cell-permeable autofluorescent compounds in GFP channel, dose response, artefact control, imaging, high-content imaging (AID 2124)
Records with an inconclusive call do not appear. The source made the active and inactive calls. The rule behind the calls is not given here; tested in MIN6 cells.
Form entry, call: pick from active, inactive

stdin: Tell me the assay call for CCN1CC=C2C(C#N)=C(N)C(C#N)(C#N)C(c3cc(Cl)ccc3Cl)C2C1 (stereo not given) please.
stdout: inactive

stdin: Tell me the assay call for `N#C/C(=C\N1CCN(Cc2ccc3c(c2)OCO3)CC1)c1nc2ccccc2s1` please.
stdout: inactive

stdin: Tell me the assay call for `CCCN1C=CC(=C/C=C(\C#N)C(=O)OCC)C=C1` please.
stdout: active

stdin: Tell me the assay call for `COc1cc([C@@H]2[C@H]3CN(C)CC=C3C(C#N)=C(N)C2(C#N)C#N)cc2c1OCO2` please.
stdout: active

stdin: Tell me the assay call for `CCCCN1C(=O)/C(=C/C=C2\SCCN2C)SC1=S` please.
stdout: active

stdin: Tell me the assay call for CCN1CC=C2C(C#N)=C(N)C(C#N)(C#N)C(CCc3ccccc3)C2C1 (stereo not given) please.
stdout: active

stdin: Tell me the assay call for `CN1CC=C2C(C#N)=C(N)C(C#N)(C#N)[C@H](c3cccs3)[C@H]2C1` please.
stdout: inactive

stdin: Tell me the assay call for `CC(=O)c1cc(NC(=O)c2ccc(Cl)cc2)c(=O)oc1/C=C/N(C)C` please.
stdout: active

stdin: Tell me the assay call for `CCN(CC)c1ccc2cc(-c3nc(-c4ccc(OC)cc4)cs3)c(=O)oc2c1` please.
stdout: inactive

stdin: Tell me the assay call for `CC(=O)c1c(C)[nH]c(-c2ccccc2)nc1=S` please.
stdout: active
